Reference for the values: the supplement of paper PMC7877785

assayProcedure: self-splicing fitness, log relative to wild type (ln ratio); higher = more splicing; Tetrahymena group I intron in knt gene, E. coli kanamycin selection, DiMSum; sequences stand for … in CUCUCU…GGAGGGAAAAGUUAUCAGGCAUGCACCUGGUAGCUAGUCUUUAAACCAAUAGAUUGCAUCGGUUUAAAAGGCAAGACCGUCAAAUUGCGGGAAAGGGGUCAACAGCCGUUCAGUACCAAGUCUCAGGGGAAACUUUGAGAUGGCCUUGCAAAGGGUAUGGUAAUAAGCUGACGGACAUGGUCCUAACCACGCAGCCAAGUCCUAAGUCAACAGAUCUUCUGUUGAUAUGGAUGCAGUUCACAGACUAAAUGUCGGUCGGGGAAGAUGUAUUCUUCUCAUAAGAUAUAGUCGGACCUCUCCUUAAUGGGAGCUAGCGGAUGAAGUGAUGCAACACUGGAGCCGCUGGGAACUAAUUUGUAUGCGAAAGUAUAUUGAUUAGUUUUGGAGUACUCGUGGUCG;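 also: selection with 25 µg/mL kanamycin versus none on LB agar overnight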
runParameters: 30 °C
Classify on self-splicing fitness (ln) using bottom: < -3; middle: ≥ -3 and < -2; top: ≥ -2

Field: example entries. Status: answers known.
        monomersequence  classname
0  AGGUAGCAAUAUUACGCUAA        top
1  UCAGAGCAAUAUUACGUCAA     bottom
2  GGACAGCAAUAUUACGUUUU        top
3  GUAUAGCAAUAUUACGCUGA        top
4  CGUUAGCAAUAUUACGUGCU     middle

Which of the defined bands does the recorded self-splicing fitness (ln) of `ACAGAGCAAUAUUACGUAGG` sit within?
bottom

Now the same for `AGUCAGCAAUAUUACGAGUU`
top

Now the same for `GGUAAGCAAUAUUACGGGGC`
bottom

Now the same for `GGCUAGCAAUAUUACGCUUC`
middle

Now the same for `CCCUAGCAAUAUUACGUCAG`
bottom
